- test protocol: Microsomal stability
- Type: in vitro ADME
- experimental setup: pH 7.4; mouse liver microsomes, 0.5 μM
- Procedure: Test compounds (0.5 μM) were incubated at 37° C. for up to 45 minutes in 50 mM of potassium phosphate buffer (pH 7.4) containing microsomal protein (0.5 mg/mL) and an NADPH generating system (0.34 mg/mL β-nicotinamide adenine dinucleotide phosphate (NADP), 1.56 mg/mL glucose-6-phosphate, 1.2 units/mL glucose-6-phosphate dehydrogenase). […] Following completion of the experimentation, the samples were analyzed by LC-MS/MS using a Shimadzu HPLC and an Applied Biosystem AP 14000.
parameter measured: half-life at 0.5 μM (min)

* CCOc1ccc2ccc(=O)oc2c1 [7-ethoxycoumarin, reference compound] | 3.9

The measurements presented in this section are drawn from patent US9926293B2.
